system_name: furin, P09958;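 further: purified furin at 1:10 enzyme:substrate in 50 mM HEPES pH 7.5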
Sequence (P09958 whole entry): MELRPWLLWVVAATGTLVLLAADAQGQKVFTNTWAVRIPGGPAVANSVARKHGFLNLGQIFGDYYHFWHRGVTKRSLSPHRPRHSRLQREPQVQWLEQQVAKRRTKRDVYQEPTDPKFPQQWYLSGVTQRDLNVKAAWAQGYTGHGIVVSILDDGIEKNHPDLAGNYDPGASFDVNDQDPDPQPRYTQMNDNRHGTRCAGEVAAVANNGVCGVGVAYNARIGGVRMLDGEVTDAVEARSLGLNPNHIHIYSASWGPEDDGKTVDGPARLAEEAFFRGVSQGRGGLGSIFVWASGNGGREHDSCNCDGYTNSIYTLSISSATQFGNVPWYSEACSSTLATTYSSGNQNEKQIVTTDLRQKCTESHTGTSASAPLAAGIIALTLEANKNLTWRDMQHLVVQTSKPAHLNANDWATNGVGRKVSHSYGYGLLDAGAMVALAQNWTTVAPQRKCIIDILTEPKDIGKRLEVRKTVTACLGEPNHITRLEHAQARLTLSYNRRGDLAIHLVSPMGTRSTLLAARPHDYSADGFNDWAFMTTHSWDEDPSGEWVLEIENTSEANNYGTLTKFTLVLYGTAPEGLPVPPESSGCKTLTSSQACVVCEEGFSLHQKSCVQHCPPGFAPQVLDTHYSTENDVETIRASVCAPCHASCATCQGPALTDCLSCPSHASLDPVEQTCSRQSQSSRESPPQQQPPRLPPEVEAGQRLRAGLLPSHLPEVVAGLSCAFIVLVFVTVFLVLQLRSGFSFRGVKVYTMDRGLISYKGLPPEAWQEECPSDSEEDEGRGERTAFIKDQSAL
protocol: furin cleavage Z-score vs untreated control; higher = more cleavage, active = 3.5 or more, inactive = 1 or less, 8 variable residues between constant flanks
experimental_setup: 30 min
This is one part of the list. No count for the full screen is at hand.
property_measured: furin cleavage Z-score
One number for each entry.

              sequence_content       property_measured  result
0  CAALVVGVVCAGNASASA [HC1106]  furin cleavage Z-score  -0.588

For each of the sequences below, state furin cleavage Z-score.
1. CARTGRACECAGNASASA [FS-2464]
2. CAALVMAQLLAGNASASA [HC326]
3. CAVTRHADVIAGNASASA [HC727]

0.474
-0.00652
-0.771
